Each recorded value in this set is attributed to patent KR20130140557A.

# Lookup of reported OD 490 nm at 0.02441 nM antibody keyed by entry
# target-or-test-system: T1, IL-6R-Fc 항원 (IL-6R full domain 단백질) (human, UniProt P08887 20-365)
# T1 construct: domain: IL-6R full domain; Expressed transiently in HEK293E and purified from the supernatant; also called IL-6R 항원; not shown: Fc part from expression vector pYK 604
# T1 sequence (looked up): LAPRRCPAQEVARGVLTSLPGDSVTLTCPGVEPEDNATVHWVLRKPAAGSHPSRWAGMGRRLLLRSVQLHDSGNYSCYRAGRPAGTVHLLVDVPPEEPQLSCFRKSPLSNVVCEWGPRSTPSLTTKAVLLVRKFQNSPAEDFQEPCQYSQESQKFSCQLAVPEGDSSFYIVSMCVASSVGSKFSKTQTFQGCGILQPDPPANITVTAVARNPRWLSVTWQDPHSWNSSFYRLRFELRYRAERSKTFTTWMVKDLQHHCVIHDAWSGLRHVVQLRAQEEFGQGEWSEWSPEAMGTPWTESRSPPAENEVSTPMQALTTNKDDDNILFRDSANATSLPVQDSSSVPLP
# measurement-notes: ELISA, coated IL-6R 100 ng/well, anti-Fab-HRP
Could you give me the number in OD490? Just the number is fine.

Study these solved cases before continuing.
Bench note: what OD 490 nm at 0.02441 nM antibody did 항 IL-6R 단클론 항체 D2 (IgG) (antibody, V domains shown, Phage clone converted to whole IgG) VH: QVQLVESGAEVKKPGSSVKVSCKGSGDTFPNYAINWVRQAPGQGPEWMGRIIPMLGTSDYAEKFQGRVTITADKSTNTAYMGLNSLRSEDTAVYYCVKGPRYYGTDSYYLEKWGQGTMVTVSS VL: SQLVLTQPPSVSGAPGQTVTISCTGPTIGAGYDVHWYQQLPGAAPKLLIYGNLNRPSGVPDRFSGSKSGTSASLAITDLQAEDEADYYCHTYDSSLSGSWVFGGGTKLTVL show? 0.449

Item under review: 항 IL-6R 단클론 항체 A7 (IgG) (antibody, V domains shown, Phage clone converted to whole IgG) VH: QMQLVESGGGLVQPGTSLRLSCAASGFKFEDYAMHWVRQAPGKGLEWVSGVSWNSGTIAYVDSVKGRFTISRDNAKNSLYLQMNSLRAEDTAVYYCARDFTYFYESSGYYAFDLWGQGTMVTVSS VL: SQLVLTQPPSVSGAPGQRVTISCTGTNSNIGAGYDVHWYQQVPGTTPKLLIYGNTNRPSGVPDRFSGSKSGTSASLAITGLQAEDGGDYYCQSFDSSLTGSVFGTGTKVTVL . Reported OD 490 nm at 0.02441 nM antibody? 0.514

What OD 490 nm at 0.02441 nM antibody value was documented for this binder, 항 IL-6R 단클론 항체 B10 (IgG) (antibody, V domains shown, Phage clone converted to whole IgG) VH: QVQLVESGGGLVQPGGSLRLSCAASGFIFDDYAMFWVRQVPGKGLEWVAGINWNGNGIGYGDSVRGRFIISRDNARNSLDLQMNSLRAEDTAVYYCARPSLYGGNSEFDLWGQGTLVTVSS VL: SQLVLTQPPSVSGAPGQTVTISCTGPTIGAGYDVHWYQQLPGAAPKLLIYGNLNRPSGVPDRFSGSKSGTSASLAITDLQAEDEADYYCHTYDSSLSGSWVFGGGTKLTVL ? 0.468

From here, focus on the item given below.
Please look up its OD 490 nm at 0.02441 nM antibody: 항 IL-6R 단클론 항체 F2 (IgG) (antibody, V domains shown, Phage clone converted to whole IgG) VH: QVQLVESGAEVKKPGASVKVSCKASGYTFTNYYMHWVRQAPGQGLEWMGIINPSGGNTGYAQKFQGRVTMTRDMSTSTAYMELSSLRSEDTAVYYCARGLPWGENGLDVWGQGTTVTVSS VL: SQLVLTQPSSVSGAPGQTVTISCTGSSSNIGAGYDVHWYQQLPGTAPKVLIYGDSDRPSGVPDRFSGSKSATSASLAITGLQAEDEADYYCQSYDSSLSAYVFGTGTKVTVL 0.535
